EC50 by entry:
target: T1, soluble human TLR3 extracellular domain (human, UniProt O15455 24-703); assay: ELISA, coated soluble hTLR3 extracellular domain, HRP-labeled anti-human IgG
T1 construct: also called hTLR3 extracellular domain; extracellular domain of human TLR3
measurementKind: EC50 (µg/mL)

{"binder": "human-adapted anti-TLR3 mAb HV4/LV7 (antibody, human IgG4, V domains shown, Human IgG4 (S228P, F234A, L235A), kappa; not shown: human kappa light chain constant region) VH: QVQLVQSGAEVKKPGASVKVSCKASGYTFTTYWIHWVRQAPGQGLEWMGEINPNNGRINYNEKFKTRVTMTRDTSISTAYMELSRLRSDDTAVYYCARVGVMITTFPYWGQGTLVTVSS VL: DIQMTQSPSSLSASVGDRVTITCRASGNIHNYLAWFQQKPGKAPKSLIYNAKTLADGVPSRFSGSGSGTDFTLTISSLQPEDFATYYCQHFWSTPFTFGQGTKLEIK", "numericValue": 0.183}
{"binder": "human-adapted anti-TLR3 mAb HV1/LV3 (antibody, human IgG4, V domains shown, Human IgG4 (S228P, F234A, L235A), kappa; not shown: human kappa light chain constant region) VH: QVQLVQSGAEVKKPGASVKVSCKASGYTFTTYWIHWVRQAPGQRLEWMGEINPNNGRINYNEKFKTRVTITRDTSASTAYMELSSLRSEDTAVYYCARVGVMITTFPYWGQGTLVTVSS VL: DIQMTQSPSSLSASVGDRVTITCRASGNIHNYLAWYQQKPGKAPKRLIYNAKTLADGVPSRFSGSGSGTEFTLTISSLQPEDFATYYCQHFWSTPFTFGQGTKLEIK", "numericValue": 0.118}
{"binder": "human-adapted anti-TLR3 mAb HV5/LV5 (antibody, human IgG4, V domains shown, Human IgG4 (S228P, F234A, L235A), kappa; not shown: human kappa light chain constant region) VH: QVQLVQSGAEVKKPGASVKVSCKASGYTFTTYWIHWVRQATGQGLEWMGEINPNNGRINYNEKFKTRVTMTRNTSISTAYMELSSLRSEDTAVYYCARVGVMITTFPYWGQGTLVTVSS VL: DIQMTQSPSSLSASVGDRVTITCRASGNIHNYLAWYQQKPGKVPKLLIYNAKTLADGVPSRFSGSGSGTDFTLTISSLQPEDVATYYCQHFWSTPFTFGGGTKVEIK", "numericValue": 0.0137}

Value source: patent US20060115475A1
